Hi there, I'd appreciate the recorded activity change, negative = active for every entry that follows.
assay.name: fungal cell lysis by compounds – dry powder, set 2, dose response (AID 743403)
condition: Cryptococcus neoformans cell lysis, plate reader; at 35 µM (top of the series)
One number for each entry, in %.

CCc1nc2ccccc2n1CCOc1ccccc1: 5.25
Cc1cccc(OCCn2c(=S)[nH]c3c(F)cccc32)c1: 1.05

Alright, here's another compound for you.
Look up activity change, negative = active: Cc1ccc(C(C)C)c(OCCn2c(=O)[nH]c3ccccc32)c1
-16.7
